From: patent US10774051B2

# reported IC50; entries follow
Target: human P2X7 receptor (Homo sapiens, UniProt Q99572, R270H/Y155H)
Test: Evaluation of human P2X7 receptor inhibitory activity (Yo-Pro uptake, BzATP stimulation, FLIPR TETRA)
Format: cell-based
Settings: antagonistic activity for the human P2X7 receptor; read-out: IC50

>  <compound>
COc1cn(Cc2ccc(F)c(Cl)c2)c(Nc2cc3c(cc2C)OC(F)(F)C(F)(F)O3)nc1=O

>  <IC50>
100 to 500 nM

$$$$
>  <compound>
COc1cn(Cc2cc(F)cc(Cl)c2)c(Nc2cc(S(C)(=O)=O)cc(C)c2C)nc1=O

>  <IC50>
10 to 100 nM

$$$$
>  <compound>
Cc1ccc(C)c(Nc2nc(=O)c(F)cn2Cc2cc(F)c(F)c(F)c2)c1

>  <IC50>
< 10 nM

$$$$
>  <compound>
Cc1cc2[nH]ncc2cc1Nc1nc(=O)c(F)cn1Cc1cc(F)c(F)c(F)c1

>  <IC50>
< 10 nM

$$$$
>  <compound>
Cc1cc2[nH]ccc2cc1Nc1nc(=O)c(F)cn1Cc1cc(F)c(F)c(F)c1

>  <IC50>
< 10 nM

$$$$
>  <compound>
COc1cn(Cc2ccc(F)c(Cl)c2)c(Nc2cc(C)c(OC(F)F)cc2C)cc1=O

>  <IC50>
10 to 100 nM

$$$$
>  <compound>
COCc1cn(Cc2cc(F)c(F)c(F)c2)c(Nc2cc(CO)ccc2C)nc1=O

>  <IC50>
< 10 nM

$$$$
>  <compound>
COc1cn(Cc2ccc(F)c(F)c2)c(Nc2cccc3c(=O)[nH]ccc23)nc1=O

>  <IC50>
10 to 100 nM

$$$$
>  <compound>
COc1cn(Cc2cc(F)cc(F)c2)c(Nc2ccc3nc(C)sc3c2C)nc1=O

>  <IC50>
10 to 100 nM

$$$$
>  <compound>
COc1cn(Cc2cc(F)cc(F)c2)c(Nc2cc(C(C)(C)O)ccc2C)nc1=O

>  <IC50>
10 to 100 nM

$$$$
>  <compound>
COc1cn(Cc2ccccc2)c(Nc2cc(N3CCOCC3)ccc2C)nc1=O

>  <IC50>
100 to 500 nM

$$$$
>  <compound>
COc1cn(Cc2cc(F)cc(Cl)c2)c(Nc2ccc(N3CCOCC3)cc2C)nc1=O

>  <IC50>
100 to 500 nM

$$$$
>  <compound>
Cc1cc(OC(F)F)c(C)cc1Nc1nc(=O)c(Cl)cn1Cc1ccc(F)c(F)c1

>  <IC50>
< 10 nM

$$$$
>  <compound>
Cc1nc2ccc(Nc3nc(=O)c(F)cn3Cc3cc(F)c(F)c(F)c3)c(C)c2s1

>  <IC50>
< 10 nM

$$$$
>  <compound>
Cc1ccc(-c2cscn2)cc1Nc1nc(=O)c(F)cn1Cc1ccc(F)c(F)c1

>  <IC50>
< 10 nM

$$$$
>  <compound>
Cc1cc(OC(F)F)c(C)cc1Nc1nc(=O)c(Cl)cn1Cc1ccc(F)c(Cl)c1

>  <IC50>
< 10 nM

$$$$
>  <compound>
Cn1ccc2c(Nc3nc(=O)c(F)cn3Cc3ccc(F)c(F)c3)cccc21

>  <IC50>
< 10 nM

$$$$
>  <compound>
CCOc1cn(Cc2ccccc2)c(Nc2cc(OC)c(OC)cc2CC)nc1=O

>  <IC50>
< 10 nM

$$$$
>  <compound>
Cc1cc(OC(F)F)ccc1Nc1nc(=O)c(F)cn1Cc1ccc(F)c(Cl)c1

>  <IC50>
10 to 100 nM

$$$$
>  <compound>
COc1ccc(C)c(Nc2nc(=O)c(F)cn2Cc2ccc(F)c(Cl)c2)c1

>  <IC50>
< 10 nM

$$$$
>  <compound>
Cc1cc(N(C)C)ccc1Nc1nc(=O)c(F)cn1Cc1cc(F)cc(F)c1

>  <IC50>
< 10 nM

$$$$
>  <compound>
COc1cn(Cc2cc(F)cc(F)c2)c(Nc2cc(OC(F)F)c(C)cc2C)nc1=O

>  <IC50>
< 10 nM

$$$$
>  <compound>
COc1cn(Cc2ccc(F)c(Cl)c2)c(Nc2cc(Cl)ccc2C)nc1=O

>  <IC50>
10 to 100 nM

$$$$
>  <compound>
Cc1cc2[nH]ncc2cc1Nc1nc(=O)c(F)cn1Cc1cc(F)cc(F)c1

>  <IC50>
10 to 100 nM

$$$$
>  <compound>
CCc1cc(F)c(OC)cc1Nc1nc(=O)c(OC)cn1Cc1ccccc1

>  <IC50>
< 10 nM

$$$$
>  <compound>
COc1ccc(Nc2nc(=O)c(F)cn2Cc2cc(F)c(F)c(F)c2)c(OC)c1C

>  <IC50>
< 10 nM

$$$$
>  <compound>
CCc1cc(Br)ccc1Nc1nc(=O)c(OC)cn1Cc1ccc(F)c(Cl)c1

>  <IC50>
10 to 100 nM

$$$$
>  <compound>
COc1cn(Cc2ccc(F)c(Cl)c2)c(Nc2cc(-c3cnccn3)ccc2C)nc1=O

>  <IC50>
< 10 nM

$$$$
>  <compound>
COc1cn(Cc2ccc(F)c(F)c2)c(Nc2cccc3c(=O)n(C)ccc23)nc1=O

>  <IC50>
10 to 100 nM

$$$$
>  <compound>
COc1cn(Cc2ccccc2)c(Nc2cc(-c3cscn3)ccc2C)nc1=O

>  <IC50>
10 to 100 nM

$$$$
>  <compound>
COc1cn(Cc2ccccc2)c(Nc2cc(-c3cccnc3)ccc2C)nc1=O

>  <IC50>
10 to 100 nM

$$$$
>  <compound>
COc1cn(Cc2ccccc2)c(Nc2cc(-c3ccnn3C)ccc2C)nc1=O

>  <IC50>
100 to 500 nM

$$$$
>  <compound>
COc1cc(C)c(Nc2nc(=NC#N)c(F)cn2Cc2cc(F)c(F)c(F)c2)cc1OC

>  <IC50>
10 to 100 nM

$$$$
